Measured values drawn from ChEMBL document CHEMBL3751798 for this set.

Measured pEC50 accompanies every entry in the list below.
System: HT-29
Experiment: Cytotoxicity against human HT-29 cells after 96 hrs by SRB assay
Format: functional, cell-based
Details: HT-29, 96 h
pEC50: −log10 of the molar value.
METRIC NAME: pEC50

>  <ITEM SMILES>
C[C@H]1[C@H](C)CC[C@]2(C(=O)N(C)O)CC[C@]3(C)C(=CC[C@@H]4[C@@]5(C)CC[C@H](O)C(C)(C)[C@@H]5CC[C@]43C)[C@H]12

>  <RECORDED MEASUREMENT>
4.91

$$$$
>  <ITEM SMILES>
C=C(C)[C@@H]1CC[C@]2(C(=O)O)CC[C@]3(C)[C@H](CC[C@@H]4[C@@]5(C)CC[C@H](O)C(C)(C)[C@@H]5CC[C@]43C)[C@@H]12

>  <RECORDED MEASUREMENT>
4.84

$$$$
>  <ITEM SMILES>
CON(C)C(=O)[C@]12CC[C@@H](C)[C@H](C)[C@H]1C1=CC[C@@H]3[C@@]4(C)CC[C@H](O)C(C)(C)[C@@H]4CC[C@@]3(C)[C@]1(C)CC2

>  <RECORDED MEASUREMENT>
4.74

$$$$
>  <ITEM SMILES>
CC(=O)O[C@H]1CC[C@]2(C)[C@H]3CC=C4[C@@H]5CC(C)(C)CC[C@]5(C(=O)N(C)O)CC[C@@]4(C)[C@]3(C)CC[C@H]2C1(C)C

>  <RECORDED MEASUREMENT>
4.97

$$$$
>  <ITEM SMILES>
CC1(C)CC[C@]2(C(=O)O)CC[C@]3(C)C(=CC[C@@H]4[C@@]5(C)CC[C@H](O)C(C)(C)[C@@H]5CC[C@]43C)[C@@H]2C1

>  <RECORDED MEASUREMENT>
4.41

$$$$

###

Test: Cytotoxicity against mouse NIH/3T3 cells after 96 hrs by SRB assay
Format: cell-based
Settings: NIH3T3, 96 h
pEC50: −log10 of the molar value.
Measured pEC50 accompanies every entry in the list below.
METRIC NAME: pEC50

>  <COMPOUND>
CON(C)C(=O)[C@]12CC[C@@H](C)[C@H](C)[C@H]1C1=CC[C@@H]3[C@@]4(C)CC[C@H](O)C(C)(C)[C@@H]4CC[C@@]3(C)[C@]1(C)CC2

>  <RECORDED MEASUREMENT>
4.63

$$$$
>  <COMPOUND>
C[C@H]1[C@H](C)CC[C@]2(C(=O)N(C)O)CC[C@]3(C)C(=CC[C@@H]4[C@@]5(C)CCC(=O)C(C)(C)[C@@H]5CC[C@]43C)[C@H]12

>  <RECORDED MEASUREMENT>
4.98

$$$$
>  <COMPOUND>
CON(C)C(=O)[C@]12CC[C@@H](C)[C@H](C)[C@H]1C1=CC[C@@H]3[C@@]4(C)CCC(=O)C(C)(C)[C@@H]4CC[C@@]3(C)[C@]1(C)CC2

>  <RECORDED MEASUREMENT>
4.73

$$$$
>  <COMPOUND>
CONC(=O)[C@]12CC[C@@H](C)[C@H](C)[C@H]1C1=CC[C@@H]3[C@@]4(C)CCC(=O)C(C)(C)[C@@H]4CC[C@@]3(C)[C@]1(C)CC2

>  <RECORDED MEASUREMENT>
4.84

$$$$
>  <COMPOUND>
CONC(=O)[C@]12CCC(C)(C)C[C@H]1C1=CC[C@@H]3[C@@]4(C)CCC(=O)C(C)(C)[C@@H]4CC[C@@]3(C)[C@]1(C)CC2

>  <RECORDED MEASUREMENT>
4.91

$$$$
>  <COMPOUND>
CONC(=O)[C@]12CC[C@@H](C)[C@H](C)[C@H]1C1=CC[C@@H]3[C@@]4(C)CC[C@H](O)C(C)(C)[C@@H]4CC[C@@]3(C)[C@]1(C)CC2

>  <RECORDED MEASUREMENT>
4.79

$$$$
>  <COMPOUND>
C[C@H]1[C@H](C)CC[C@]2(C(=O)O)CC[C@]3(C)C(=CC[C@@H]4[C@@]5(C)CC[C@H](O)C(C)(C)[C@@H]5CC[C@]43C)[C@H]12 [URSOLIC ACID]

>  <RECORDED MEASUREMENT>
4.73

$$$$
>  <COMPOUND>
CONC(=O)[C@]12CC[C@@H](C)[C@H](C)[C@H]1C1=CC[C@@H]3[C@@]4(C)CC[C@H](OC(C)=O)C(C)(C)[C@@H]4CC[C@@]3(C)[C@]1(C)CC2

>  <RECORDED MEASUREMENT>
4.83

$$$$
>  <COMPOUND>
CC1(C)CC[C@]2(C(=O)NO)CC[C@]3(C)C(=CC[C@@H]4[C@@]5(C)CC[C@H](O)C(C)(C)[C@@H]5CC[C@]43C)[C@@H]2C1

>  <RECORDED MEASUREMENT>
5.37

$$$$
>  <COMPOUND>
CONC(=O)[C@]12CCC(C)(C)C[C@H]1C1=CC[C@@H]3[C@@]4(C)CC[C@H](O)C(C)(C)[C@@H]4CC[C@@]3(C)[C@]1(C)CC2

>  <RECORDED MEASUREMENT>
4.74

$$$$
>  <COMPOUND>
CN(O)C(=O)[C@]12CCC(C)(C)C[C@H]1C1=CC[C@@H]3[C@@]4(C)CC[C@H](O)C(C)(C)[C@@H]4CC[C@@]3(C)[C@]1(C)CC2

>  <RECORDED MEASUREMENT>
4.95

$$$$

###

Assay: Cytotoxicity against mouse NIH/3T3 cells after 96 hrs by SRB assay
Type: cell-based
Details: NIH3T3, 96 h
pEC50: −log10 of the molar value.

>  <ITEM SMILES>
CC(=O)O[C@H]1CC[C@]2(C)[C@H]3CC=C4[C@@H]5[C@@H](C)[C@H](C)CC[C@]5(C(=O)N(C)O)CC[C@@]4(C)[C@]3(C)CC[C@H]2C1(C)C

>  <pEC50>
5.18

$$$$
>  <ITEM SMILES>
CON(C)C(=O)[C@]12CC[C@@H](C)[C@H](C)[C@H]1C1=CC[C@@H]3[C@@]4(C)CC[C@H](OC(C)=O)C(C)(C)[C@@H]4CC[C@@]3(C)[C@]1(C)CC2

>  <pEC50>
4.64

$$$$
>  <ITEM SMILES>
CC(=O)O[C@H]1CC[C@]2(C)[C@H]3CC=C4[C@@H]5CC(C)(C)CC[C@]5(C(=O)NO)CC[C@@]4(C)[C@]3(C)CC[C@H]2C1(C)C

>  <pEC50>
5.59

$$$$
>  <ITEM SMILES>
CONC(=O)[C@]12CCC(C)(C)C[C@H]1C1=CC[C@@H]3[C@@]4(C)CC[C@H](OC(C)=O)C(C)(C)[C@@H]4CC[C@@]3(C)[C@]1(C)CC2

>  <pEC50>
4.88

$$$$
>  <ITEM SMILES>
CN(O)C(=O)[C@]12CCC(C)(C)C[C@H]1C1=CC[C@@H]3[C@@]4(C)CCC(=O)C(C)(C)[C@@H]4CC[C@@]3(C)[C@]1(C)CC2

>  <pEC50>
5.04

$$$$

###

Test system: A549
Assay: Cytotoxicity against human A549 cells after 96 hrs by SRB assay
Format: functional, cell-based
Details: A549, 96 h
pEC50: −log10 of the molar value.
METRIC NAME: pEC50

>  <ITEM SMILES>
CONC(=O)[C@]12CC[C@@H](C)[C@H](C)[C@H]1C1=CC[C@@H]3[C@@]4(C)CC[C@H](OC(C)=O)C(C)(C)[C@@H]4CC[C@@]3(C)[C@]1(C)CC2

>  <METRIC NAME>
pEC50

>  <RECORDED MEASUREMENT>
5.18

$$$$
>  <ITEM SMILES>
CN(O)C(=O)[C@]12CCC(C)(C)C[C@H]1C1=CC[C@@H]3[C@@]4(C)CCC(=O)C(C)(C)[C@@H]4CC[C@@]3(C)[C@]1(C)CC2

>  <METRIC NAME>
pEC50

>  <RECORDED MEASUREMENT>
5.09

$$$$
>  <ITEM SMILES>
C[C@H]1[C@H](C)CC[C@]2(C(=O)N(C)O)CC[C@]3(C)C(=CC[C@@H]4[C@@]5(C)CC[C@H](O)C(C)(C)[C@@H]5CC[C@]43C)[C@H]12

>  <METRIC NAME>
pEC50

>  <RECORDED MEASUREMENT>
5.01

$$$$
>  <ITEM SMILES>
CC(=O)O[C@H]1CC[C@]2(C)[C@H]3CC=C4[C@@H]5[C@@H](C)[C@H](C)CC[C@]5(C(=O)NO)CC[C@@]4(C)[C@]3(C)CC[C@H]2C1(C)C

>  <METRIC NAME>
pEC50

>  <RECORDED MEASUREMENT>
5.41

$$$$
>  <ITEM SMILES>
CN(O)C(=O)[C@]12CCC(C)(C)C[C@H]1C1=CC[C@@H]3[C@@]4(C)CC[C@H](O)C(C)(C)[C@@H]4CC[C@@]3(C)[C@]1(C)CC2

>  <METRIC NAME>
pEC50

>  <RECORDED MEASUREMENT>
5.01

$$$$
>  <ITEM SMILES>
CONC(=O)[C@]12CC[C@@H](C)[C@H](C)[C@H]1C1=CC[C@@H]3[C@@]4(C)CC[C@H](O)C(C)(C)[C@@H]4CC[C@@]3(C)[C@]1(C)CC2

>  <METRIC NAME>
pEC50

>  <RECORDED MEASUREMENT>
5.08

$$$$
